System: DU-145 prostate
Assay: NCI tumour cell line growth inhibition, 48 h
Readings of TGI for the listed compounds

Look over these answered cases.
[
  {
    "Compound": "COC1CC(OC2C(C)OC(OC3C(C)OC(OC4C(C)OC(O[C@H]5CC[C@@]6(C)C(=CC[C@]7(O)[C@@H]6C[C@@H](OC(C)=O)[C@@]6(C)[C@]7(O)CC[C@@]6(O)C(C)=O)C5)CC4OC)CC3OC)CC2OC)OC(C)C1O (some centres undefined)",
    "TGI": "> 25 µM"
  },
  {
    "Compound": "COC(=O)CCNC(=O)OCc1ccccc1",
    "TGI": "> 100 µM"
  }
]

// query Query: TGI; subject: NC1CCC(N(CC(=O)O)CC(=O)O)C(N(CC(=O)O)CC(=O)O)C1 (centres undefined)
// result > 100 µM

// query // next record C=CCOC(=O)C1=C(C)NC2=N[C@H](CCCCCCCCC)C[C@@H]3CCC1N23 (some centres undefined)
// result 67.8 µM

// query // next record CC(=O)NCC1OC2COC(c3ccccc3)OC2C(NC(=O)c2ccccc2)C1OC(=O)c1ccccc1 (centres undefined)
// result > 100 µM

// query // next record O=C(O)C1[O][Sb][O]C(C(=O)O)C1O (centres undefined)
// result > 100 µM

// query // next record O=C(CCN1CCCCC1)N1CCc2c([nH]c3ccccc23)C1c1cccnc1 (centres undefined)
// result > 100 µM

// query // next record `CCc1ccc(COC(=O)C2=C(C)NC(C)=C(C(=O)OCc3ccc(CC)cn3)C2C2=COCCO2)nc1`
// result > 100 µM

// query // next record `Nc1ccccc1C(=O)CCC1C(=O)NC(=S)NC1=O`
// result > 100 µM

----------
Test system: SW-620 colon
Test: NCI tumour cell line growth inhibition, 48 h
Readings of GI50 for the listed molecules

Look over these answered cases.
[
  {
    "Molecule": "COC(=O)c1oc2c(C(=O)/C=C/c3ccc(OC)cc3)c(OCCN(C)C)ccc2c1C",
    "Assay Endpoint": "GI50",
    "Recorded Measurement": "2.4 µM"
  },
  {
    "Molecule": "C=CCC(N[C@H](CO)c1ccccc1)c1cn(Cc2ccccc2Cl)c(=O)n(Cc2ccccc2Cl)c1=O (stereo not given in full)",
    "Assay Endpoint": "GI50",
    "Recorded Measurement": "24.3 µM"
  },
  {
    "Molecule": "CCN(CC)CCCC(C)N/C(=C1\\C(=O)NC(=O)\\C1=C(/NC(C)CCCN(CC)CC)c1cccc(OC)c1)c1cccc(OC)c1 (stereo not given)",
    "Assay Endpoint": "GI50",
    "Recorded Measurement": "0.512 µM"
  },
  {
    "Molecule": "CC(=O)[CH-]C(=O)c1ccccc1.CC(=O)[CH-]C(=O)c1ccccc1.CC(=O)[CH-]C(=O)c1ccccc1.[Nd+3].[OH3+]",
    "Assay Endpoint": "GI50",
    "Recorded Measurement": "55.2 µM"
  },
  {
    "Molecule": "Cc1cc(C)c(-c2c(N)cc(Br)cc2Br)c(N)c1",
    "Assay Endpoint": "GI50",
    "Recorded Measurement": "3.93 µM"
  },
  {
    "Molecule": "Cn1c2c(c3c(Cl)nncc31)Cc1ccccc1-2",
    "Assay Endpoint": "GI50",
    "Recorded Measurement": "17.9 µM"
  },
  {
    "Molecule": "C=CCC(N[C@@H](CO)c1ccccc1)c1cn(C(=O)OCC)c2ccccc12 (stereo not given in full)",
    "Assay Endpoint": "GI50",
    "Recorded Measurement": "28.6 µM"
  },
  {
    "Molecule": "CCN(Cc1cccc(Cl)c1)c1ccc(CO)c(Cl)c1",
    "Assay Endpoint": "GI50",
    "Recorded Measurement": "1.56 µM"
  },
  {
    "Molecule": "CC(=O)N1N=C(c2ccc(Nc3nc(Nc4ccc(F)cc4)nc(Nc4ccc(F)cc4)n3)cc2)CC1c1ccc(N(C)C)cc1 (stereo not given)",
    "Assay Endpoint": "GI50",
    "Recorded Measurement": "3.8 µM"
  },
  {
    "Molecule": "N#Cc1cnc(Nc2cc(NC[C@H]3CNCCO3)c(C(F)(F)F)cn2)cn1",
    "Assay Endpoint": "GI50",
    "Recorded Measurement": "18.1 µM"
  }
]

// query Query: GI50; subject: `Cc1cc(Nc2nc(N[C@@H](C)c3ncc(F)cn3)ncc2Cl)n[nH]1`
// result 22.6 µM

// query // next record O=C(NCC1CCCO1)c1ccc(NC2=C(Cl)C(=O)N(Cc3ccccc3)C2=O)cc1 (stereo not given)
// result 5.95 µM

// query // next record `Clc1ccccc1-c1nnc2c(Cc3ccccc3)nc3ccccc3n12`
// result 20.7 µM

// query // next record C#CCN(c1ccc(C(=O)N[C@@H](CCC(=O)N[C@H](CCC(=O)O)C(=O)O)C(=O)O)cc1)C1CCc2cc3nc(CO)[nH]c(=O)c3cc21 (stereo not given in full)
// result > 44.5 µM

// query // next record `COC(=O)c1cc2c3ccccc3n3c2c(n1)-c1[nH]c2ccccc2c(=O)c1C3`
// result > 100 µM

----------
Readings of GI50 for the listed molecules
Tested on: HCC-2998 colon
Assay: NCI tumour cell line growth inhibition, 48 h

Look over these answered cases.
[
  {
    "Molecule": "CSc1nc2c(c(=O)n1C)CN(C1CCCCC1)C(=O)C(c1ccccc1)N2 (configuration not stated)",
    "Assay Endpoint": "GI50",
    "Recorded Measurement": "35.9 µM"
  },
  {
    "Molecule": "CC(=O)[CH-]C(=O)c1ccccc1.CC(=O)[CH-]C(=O)c1ccccc1.CC(=O)[CH-]C(=O)c1ccccc1.[Nd+3].[OH3+]",
    "Assay Endpoint": "GI50",
    "Recorded Measurement": "85.7 µM"
  },
  {
    "Molecule": "CCN(CC)CCCC(C)N/C(=C1\\C(=O)NC(=O)\\C1=C(/NC(C)CCCN(CC)CC)c1cccc(OC)c1)c1cccc(OC)c1 (configuration not stated)",
    "Assay Endpoint": "GI50",
    "Recorded Measurement": "0.845 µM"
  },
  {
    "Molecule": "Clc1ccccc1-c1nnc2c(Cc3ccccc3)nc3ccccc3n12",
    "Assay Endpoint": "GI50",
    "Recorded Measurement": "59.9 µM"
  },
  {
    "Molecule": "Cc1cc(C)c(-c2c(N)cc(Br)cc2Br)c(N)c1",
    "Assay Endpoint": "GI50",
    "Recorded Measurement": "10.9 µM"
  },
  {
    "Molecule": "Cc1cc(-c2cc(O)ccc2Cl)cc2nnc(Nc3ccc(OCCN4CCCC4)cc3)nc12",
    "Assay Endpoint": "GI50",
    "Recorded Measurement": "1.94 µM"
  },
  {
    "Molecule": "C=CCC(N[C@@H](CO)c1ccccc1)c1cn(C(=O)OCC)c2ccccc12 (some centres not stated)",
    "Assay Endpoint": "GI50",
    "Recorded Measurement": "16.3 µM"
  },
  {
    "Molecule": "CC(=O)[CH-]C(=O)c1ccccc1.CC(=O)[CH-]C(=O)c1ccccc1.O=S(=O)([O-])c1cc([O-])c2c([O-])cc(S(=O)(=O)[O-])cc2c1.[Na+].[Zr+4]",
    "Assay Endpoint": "GI50",
    "Recorded Measurement": "> 100 µM"
  },
  {
    "Molecule": "CCOc1ccn(-c2ccc(F)cc2)c(=O)c1C(=O)Nc1ccc(Oc2ccnc(N)c2Cl)c(F)c1",
    "Assay Endpoint": "GI50",
    "Recorded Measurement": "38.5 µM"
  },
  {
    "Molecule": "COC(=O)c1cc2c3ccccc3n3c2c(n1)-c1[nH]c2ccccc2c(=O)c1C3",
    "Assay Endpoint": "GI50",
    "Recorded Measurement": "> 100 µM"
  }
]

// query Query: GI50; subject: CO[C@H]1CC(O[C@@H]2/C(C)=C/C[C@@H]3C[C@@H](C[C@]4(CC[C@H](C)[C@@H](C5CCCCC5)O4)O3)OC(=O)[C@@H]3C=C(C)/C(=N/O)[C@H]4OC/C(=C\C=C\[C@@H]2C)[C@]43O)O[C@@H](C)C1O (some centres not stated)
// result 0.831 µM

// query // next record CC1NC(=O)C2=C1C(=O)NC(=O)C2 (configuration not stated)
// result > 100 µM

----------
System: A498 renal
Assay: NCI tumour cell line growth inhibition, 48 h
Readings of log10(TGI) for the listed compounds
Parameter value (number): base-10 log of TGI in µM.

Look over these answered cases.
[
  {
    "Compound": "CCOc1ccn(-c2ccc(F)cc2)c(=O)c1C(=O)Nc1ccc(Oc2ccnc(N)c2Cl)c(F)c1",
    "Measured On": "A498 renal",
    "log10(TGI)": 1.09
  },
  {
    "Compound": "COc1cc(C2c3cc4c(cc3C(OC(=O)C[n+]3ccccc3)C3COC(=O)C23)OCO4)cc(OC)c1OC (configuration not stated)",
    "Measured On": "A498 renal",
    "log10(TGI)": 1.20
  },
  {
    "Compound": "COc1ccc(/C=C2/SC(Nc3nc(-c4nc(NC5=NC(=O)/C(=C\\c6ccc(OC)cc6)S5)sc4C)c(C)s3)=NC2=O)cc1",
    "Measured On": "A498 renal",
    "log10(TGI)": 0.63
  }
]

// query Query: log10(TGI); subject: `COc1ccc2c(c1)/C(=C\c1c(Cl)[nH]c3ccccc13)C(=O)N2`
// result 1.37

// query // next record `N#Cc1cnc(Nc2cc(NC[C@H]3CNCCO3)c(C(F)(F)F)cn2)cn1`
// result 1.26

// query // next record `Cc1cc(Nc2nc(N[C@@H](C)c3ncc(F)cn3)ncc2Cl)n[nH]1`
// result 1.12

// query // next record `CCCCCCCC/C=C/CCCCCCCC1=NC(C)(C)CN1CCO`
// result 1.23

// query // next record `O=C(c1ccccc1)N1CCC(CC2(c3cc4ccccc4[nH]3)OCCO2)CC1`
// result 1.80
